Test system: HSV-1 (strain KOS)
Assay: HSV-1 plaque reduction assay (PRA) in VERO cells
Assay type: cell-based
Details: VERO cells, HSV-1 strain KOS; linear regressions; read-out: IC50 (anti-HSV-1)
Procedure: The ability of PS-ONs to inhibit HSV-1 is measured in a plaque reduction assay (PRA). […] Viral adsorbtion proceeds for 90 minutes, after which cells are washed and replaced with new “overlay” media containing 5% fetal calf serum and 1% human immunoglobins. Three to four days after adsorbtion, cells are fixed by formalin and plaques are counted following formalin fixation and cresyl violet staining. […]
In the oligonucleotide strings, read from the 5' end, every base follows the letter of its sugar. An asterisk marks phosphorothioate; unmarked linkages are phosphodiester. Other units and linkages are bracketed, terminal groups are in braces. A string of capitals states the bases alone. d = 2'-deoxy (DNA)

[
  {
    "Substance": "REP 2001: PS-ON directed against the origin of replication in HSV (DNA dG*dA*dA*dG*dC*dG*dT*dT*dC*dG*dC*dA*dC*dT*dT*dC*dG*dT*dC*dC*dC*dA)",
    "System": "HSV-1 (strain KOS)",
    "IC50 / nM": 770
  },
  {
    "Substance": "REP 1001: PS-ON directed against a replication origin in humans (343 ARS) (DNA dT*dT*dG*dA*dT*dA*dA*dA*dT*dA*dG*dT*dA*dC*dT*dA*dG*dG*dA*dC)",
    "System": "HSV-1 (strain KOS)",
    "IC50 / nM": 2760
  },
  {
    "Substance": "REP 3007: PS-ON directed against a plasmid (pBR322/pUC) replication origin (DNA dC*dT*dT*dG*dC*dG*dG*dT*dA*dT*dT*dC*dG*dG*dA*dA)",
    "System": "HSV-1 (strain KOS)",
    "IC50 / nM": 5330
  }
]
